These measurements were taken from PubChem BioAssay (NCI).

Test system: UO-31 renal
run.description: NCI tumour cell line growth inhibition, 48 h
Peptide text beside a SMILES is read from it. * marks the point of attachment. Cbz = O=C(OCc1ccccc1)*
metric: TGI

Take each entry in turn and give its TGI.
1. CCOC(=O)CCC(NC(=O)CNC(=O)CNC(=O)C(CCC(=O)OCC)NC(=O)C(CCC(=O)OCC)NC(=O)C(CCC(=O)OCC)NC(=O)OCc1ccccc1)C(=O)NC(CCC(=O)OCC)C(=O)NC(CCC(=O)OCC)C(=O)OCC (stereo not drawn) (Cbz-E(OEt)E(OEt)E(OEt)GGE(OEt)E(OEt)E(OEt)-OEt; configuration not given here)
2. COc1ccc(-n2nc(C(=O)c3ccccc3)c3nn4c(=O)cc(-c5ccccc5)nc4nc32)cc1
3. OC1CCSc2ccccc21 (stereo not drawn)
4. CCC12CN(C(=O)OC)C3C(Br)C1CCC(=O)C32 (stereo not drawn)

1. > 75 µM
2. > 100 µM
3. > 100 µM
4. > 100 µM

* * *

Test system: HCT-15 colon
run.description: NCI tumour cell line growth inhibition, 48 h; in the data active = GI50 below about 0.43 µM; inactive = the rest
Could you please pick one outcome from this set? t (active), f (inactive)

A selection of reference data follows.
Answer briefly: the call reported for "Fc1cccc(-c2nc(-c3c[nH]c4ncccc34)cs2)c1" in this assay.
f

Answer briefly: the call reported for CC12OC(C(=O)C13CCC3)C1C(=O)c3c(O)ccc(O)c3C(=O)C12 (centres undefined) in this assay.
f

---
Answer briefly: the call reported for "COc1ccc2cn3c4ccc(O)cc4[nH]c(=O)c3c2c1" in this assay.
t

Answer briefly: the call reported for "COc1ccc(-n2nc(C(=O)c3ccccc3)c3nn4c(=O)cc(-c5ccccc5)nc4nc32)cc1" in this assay.
f

Answer briefly: the call reported for "CCN(CC)CCOc1ccccc1-n1c(C)ccc1-c1ccccc1" in this assay.
f

Answer briefly: the call reported for "COc1ncc(-c2ccc3ncnc(Nc4cccc(Cl)c4)c3c2)cc1NS(C)(=O)=O" in this assay.
f

Answer briefly: the call reported for "O=C1c2ccccc2-c2c1c1ccc3ccccc3c1n2-c1ccccc1" in this assay.
f

Answer briefly: the call reported for "C=C(C)[C@@H]1CC[C@]2(COC(=O)c3ccccc3C(=O)O)CC[C@]3(C)[C@H](CC[C@@H]4[C@@]5(C)CC[C@H](OC(=O)c6ccccc6C(=O)O)C(C)(C)[C@@H]5CC[C@]43C)[C@@H]12" in this assay.
f

Answer briefly: the call reported for COC(=O)C(Br)(C(=O)OC)C(Br)C(Br)C(Br)c1ccccc1 (centres undefined) in this assay.
f

* * *

Tested on: HCC-2998 colon
run.description: NCI tumour cell line growth inhibition, 48 h
Kindly state GI50 for each of the entries shown.

Example entries begin here.
Sure, the documented GI50 for "NCCNc1nc2ccc(F)cc2c2c(=O)c3cc(F)ccc3sc12" is 1.77 µM

Sure, the documented GI50 for Cc1nc2sc(C(=O)Nc3cccc(Cl)c3C)c(N)c2cc1C(O)c1ccccc1 (centres undefined) is 0.106 µM

Sure, the documented GI50 for "NC1=CC(=O)C(=O)c2ccccc21" is 43.9 µM

Sure, the documented GI50 for CCN(CC)CCC(CNc1c(C)cnc2cc(Cl)ccc12)c1ccc(Cl)c(Cl)c1 (centres undefined) is 1.77 µM

Sure, the documented GI50 for "O=C1c2ccccc2-c2c1c1ccc([N+](=O)[O-])cc1c(=O)n2CCN1CCOCC1" is > 100 µM

Take each entry in turn and give its GI50.
1. C=C(C)[C@@H]1CC[C@]2(COC(=O)c3ccccc3C(=O)O)CC[C@]3(C)[C@H](CC[C@@H]4[C@@]5(C)CC[C@H](OC(=O)c6ccccc6C(=O)O)C(C)(C)[C@@H]5CC[C@]43C)[C@@H]12
2. CCOC(=O)CC1C(CNC(=O)NC)OC(n2cnc3c(NC(=O)Nc4ccccc4)ncnc32)C1O[Si](C)(C)C(C)(C)C (centres undefined)
3. CN1CCC(n2cnc(-c3ccc(F)cc3)c2-c2ccnc(Nc3ccccc3)n2)CC1

74.3 µM
> 100 µM
6.76 µM

Sure, the documented GI50 for NC1=C(/C(N)=N/O)C(c2ccccc2)c2ccc3ccccc3c2O1 (centres undefined) is 0.729 µM

* * *

Kindly state TGI for each of the entries shown.
Tested on: OVCAR-3 ovarian
run.description: NCI tumour cell line growth inhibition, 48 h
Answers are plain numbers, in µM.

Example entries begin here.
Measured on OVCAR-3 ovarian, "COc1ccccc1NC(=O)C1=C(C)NC(C)=C(C(=O)Nc2ccccc2OC)C1c1ccc(C2C(C(=O)Nc3ccccc3OC)=C(C)NC(C)=C2C(=O)Nc2ccccc2OC)cc1" has a documented TGI of 6.08

Measured on OVCAR-3 ovarian, "COc1cc(NC(=O)c2cc3ccccc3cc2O)c(OC)cc1Cl" has a documented TGI of 4.1

Measured on OVCAR-3 ovarian, "CS(=O)(=O)Nc1ccc(NCc2cnc3ccc4[nH]cccc4c23)cc1" has a documented TGI of 92.9

Could you now look at the following compound, please?
Measured on OVCAR-3 ovarian, Cc1nc2sc(C(=O)Nc3cccc(Cl)c3C)c(N)c2cc1C(O)c1ccccc1 (centres undefined) has a documented TGI of 1.14

* * *

Kindly state GI50 for each of the entries shown.
System: SF-268 CNS
run.description: NCI tumour cell line growth inhibition, 48 h

Example entries begin here.
Sure, the documented GI50 for NC1=C(/C(N)=N/O)C(c2ccccc2)c2ccc3ccccc3c2O1 (stereo not given) is 1.09 µM

Sure, the documented GI50 for "CCN1C(=O)N[C@H]2[C@@H]3NC(=O)c4ccc(Cl)n4[C@@H]3C[C@]21O" is 0.502 µM

Take each entry in turn and give its GI50.
1. CCCCc1n(Cc2ccc3ccccc3n2)cc[n+]1Cc1ccc2ccccc2c1
2. O=C1c2ccccc2-c2c1c1ccc3ccccc3c1n2-c1ccccc1
3. COc1ccccc1N1CCN(CC(O)Cn2c(=O)c3c(OC)nc(C)cc3c(=O)n2-c2ccccc2)CC1 (stereo not given)
4. CCN1Cc2c(/C=C/c3ccccc3)nc3ccc(OC)cc3c2N(c2cccc(Cl)c2)C1
5. CCN(CC)CCOc1ccccc1-n1c(C)ccc1-c1ccccc1
6. C=C(C)[C@@H]1CC[C@]2(COC(=O)c3ccccc3C(=O)O)CC[C@]3(C)[C@H](CC[C@@H]4[C@@]5(C)CC[C@H](OC(=O)c6ccccc6C(=O)O)C(C)(C)[C@@H]5CC[C@]43C)[C@@H]12

0.984 µM
20 µM
62.1 µM
1.87 µM
15.6 µM
26.6 µM

* * *

System: UACC-62 melanoma
run.description: NCI tumour cell line growth inhibition, 48 h
# cutoff 20 µM applies to TGI; >= gives TRUE, < gives FALSE

A selection of reference data follows.
Determine whether measured TGI meets or exceeds 20 µM for O=C(O)C(C(F)(F)F)C(F)(F)F (tested in a mixture with another compound)
TRUE

Determine whether measured TGI meets or exceeds 20 µM for Cc1nc2sc(C(=O)Nc3cccc(Cl)c3C)c(N)c2cc1C(O)c1ccccc1 (stereo not given)
FALSE

Determine whether measured TGI meets or exceeds 20 µM for O=C(c1ccccc1)N1CCC(Nc2cccnc2)O1 (stereo not given)
TRUE

---
Determine whether measured TGI meets or exceeds 20 µM for "Cc1cc(O)cc(-c2nn(C)cc2-c2cc(N3CCOCC3)nc(-c3cccnc3)n2)c1"
FALSE

Determine whether measured TGI meets or exceeds 20 µM for Cc1ccc(C2SCc3nc4ccccc4n32)cc1 (stereo not given)
TRUE

Determine whether measured TGI meets or exceeds 20 µM for O=C(Cc1ccccc1)N/N=C(/c1nc2ccc([N+](=O)[O-])cc2[nH]c1=O)C(O)c1ccco1 (stereo not given)
TRUE

Determine whether measured TGI meets or exceeds 20 µM for COc1ccc2c3c1OC1C4(CCC5C(C2)N(CC2CC2)CCC351)OCCO4 (stereo not given)
TRUE

Determine whether measured TGI meets or exceeds 20 µM for "O=C1CCCc2cc3c(cc21)CC1(C3)Cc2cc3c(cc2C1)C(=O)CCC3"
TRUE

Determine whether measured TGI meets or exceeds 20 µM for "Clc1ccc2c(NCCNc3nc(N4CCCCC4)nc4ccccc34)ccnc2c1"
FALSE

Determine whether measured TGI meets or exceeds 20 µM for CC(CCCCNC(=O)OC(C)(C)C)NC(=O)NC(C)CCCCNC(=O)OC(C)(C)C (stereo not given)
TRUE

* * *

Test system: SF-295 CNS
run.description: NCI tumour cell line growth inhibition, 48 h
metric: TGI

Example entries begin here.
Sure, the documented TGI for "CCCCCC/C=C\CCCCCCCCCc1cccc(OC)c1O" is > 100 µM

Sure, the documented TGI for "CC(=O)Nc1ccc(S(=O)(=O)N/N=C(\C)CN2C(=O)c3ccccc3C2=O)cc1" is > 100 µM

Sure, the documented TGI for "CCOC(=O)/C=C(/C(=O)OCC)n1cc(C)c(=O)[nH]c1=O" is 31.6 µM

Take each entry in turn and give its TGI.
1. C=C(CN(C)C)C(=O)c1ccccc1Cl
2. CNc1ccc(Cl)cc1C(=O)N1CCC[C@H]1CO
3. COc1ccc2c(ccc3oc([N+](=O)[O-])cc32)c1
4. CCCCCCCCCCCCCCCCCCOC(COP(=O)(O)OCC1OC(n2cc(F)c(=O)[nH]c2=O)CC1O)COP(=O)(O)OCC1OC(n2ccc(N)nc2=O)C(O)C1O (stereo unspecified)

["> 100 µM", "> 100 µM", "1.9 µM", "> 100 µM"]

Take each entry in turn and give its TGI.
1. CCOC(=O)COc1cc(-c2ccccc2)nc2cc(F)ccc12
2. CC(CCCCNC(=O)OC(C)(C)C)NC(=O)NC(C)CCCCNC(=O)OC(C)(C)C (stereo unspecified)
3. CCOc1cc2cnc3c4cc(OC)c(OC)cc4ccc3c2cc1OC
4. CC(O)/C=C/C1OC(=O)CC1Nc1ccc(C=O)cc1 (stereo unspecified)
5. Cc1ccc(S(=O)(=O)Nc2cc(=O)[nH]c3c2CCC3)cc1
6. CN1C(CC(O)c2ccccc2)CCCC1CC(O)(c1ccccc1)c1ccccc1 (stereo unspecified)
7. COc1cc2cc[n+](C)c(Cc3ccc(Oc4cc(Cc5c6cc(OC)c(OC)cc6cc[n+]5C)ccc4OC)cc3)c2cc1OC

1: > 100 µM; 2: > 100 µM; 3: > 100 µM; 4: > 100 µM; 5: > 100 µM; 6: 30.8 µM; 7: > 100 µM
